target: JAK3 (catalytic domain, His-tag) (Homo sapiens); construct: All four purified enzymes contain only the catalytic domain; His (N); purchased Carna Biosciences, Inc; host or cells: baculovirus expression system; assay: JAK kinase assay (HTRF, phosphorylation of TK substrate-biotin), JAK3; assay type: biochemical; settings: ATP at Km (2 μM); read-out: JAK3 kinase inhibitory activity (EC50 indicator)
Sequence (P52333 822-1111 limits assumed): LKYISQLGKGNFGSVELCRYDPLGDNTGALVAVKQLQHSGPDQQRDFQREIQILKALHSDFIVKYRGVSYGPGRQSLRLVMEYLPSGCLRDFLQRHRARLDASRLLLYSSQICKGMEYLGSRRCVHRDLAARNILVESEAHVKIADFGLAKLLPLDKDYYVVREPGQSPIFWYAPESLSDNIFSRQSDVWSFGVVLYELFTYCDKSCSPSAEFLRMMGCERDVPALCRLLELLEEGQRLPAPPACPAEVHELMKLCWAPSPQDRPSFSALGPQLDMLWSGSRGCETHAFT
pEC50: −log10 of the molar value.
ASSAY_READOUT: pEC50

>  <MOLECULE>
N#CCC(=O)N1[C@@H]2CC[C@H]1CN(c1ncnc3[nH]ccc13)C2 [Example 53]

>  <pEC50>
6.30 to 7.00

$$$$
>  <MOLECULE>
N#CCOc1cccc(C(=O)N2CCN(c3ncnc4[nH]ccc34)CC23CC3)c1 [Example 67]

>  <pEC50>
6.30 to 7.00

$$$$
>  <MOLECULE>
O=C(CC(F)(F)F)N1CCN(c2ncnc3[nH]ccc23)CC12CC2 [Example 24]

>  <pEC50>
> 7.00

$$$$

Prompt: Report pEC50 for O=C(c1cccc(-c2ccccc2)c1)N1[C@@H]2CC[C@@H]1CN(c1ncnc3[nH]ccc13)C2 [Example 178] tested on JAK3 (catalytic domain, His-tag) (Homo sapiens).
Completion: 6.30 to 7.00

Prompt: Now this one: Cc1ccsc1C(=O)N1CCN(c2ncnc3[nH]ccc23)CC12CC2 [Example 90]
Completion: 6.30 to 7.00

Prompt: Now this one: O=C(c1cc2c(s1)CCC2)N1CCN(c2ncnc3[nH]ccc23)CC12CC2 [Example 61]
Completion: > 7.00

Prompt: Now this one: N#CCc1ccc(C(=O)N2[C@@H]3CC[C@@H]2CN(c2ncnc4[nH]ccc24)C3)cc1 [Example 175]
Completion: 6.30 to 7.00

Prompt: Now this one: CN(CCC#N)C(=O)C1(C(=O)N2CCN(c3ncnc4[nH]ccc34)CC23CC3)CC1 [Example 87]
Completion: < 6.30
